Test system: F1 hybrid maize plants
Experiment: efficacy field trial for quizalofop-P tolerance and clethodim sensitivity
Type: in vivo
Conditions: scale 0 to 100; 0.64 lb ai/acre at VE-V2, V4, V8; with CTP unless label says no CTP
Observed Property: average injury rating, V8 Growth Stage, 8x Quizalofop
// print number alone

The measured average injury rating, V8 Growth Stage, 8x Quizalofop associated with MON-HT7: engineered oxygenase protein, amino acid sequence SEQ ID NO:34 (protein) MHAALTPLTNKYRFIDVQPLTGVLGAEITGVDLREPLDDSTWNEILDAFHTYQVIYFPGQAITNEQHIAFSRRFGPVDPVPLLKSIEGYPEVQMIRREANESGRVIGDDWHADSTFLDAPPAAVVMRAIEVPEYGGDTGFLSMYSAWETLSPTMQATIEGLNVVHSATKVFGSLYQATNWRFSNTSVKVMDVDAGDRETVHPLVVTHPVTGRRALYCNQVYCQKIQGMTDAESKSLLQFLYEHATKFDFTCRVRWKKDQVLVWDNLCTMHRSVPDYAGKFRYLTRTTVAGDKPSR reads 0.8

Just for reference, patent US12723255B2 is where these values come from.
